Source: ChEMBL document CHEMBL1201861

This listing pairs compounds with measured IC50.
# Test system: KM12
# experiment: cells
# Assay type: functional, cell-based
# testConditions: Homo sapiens
# Description: SANGER: Inhibition of human KM12 cell growth in a cell viability assay.

>  <compound>
C/C(O)=C(\C#N)C(=O)Nc1cc(Br)ccc1Br

>  <measuredTarget>
KM12

>  <IC50>
> 16 µM

$$$$
>  <compound>
CC(O)(CS(=O)(=O)c1ccc(F)cc1)C(=O)Nc1ccc(C#N)c(C(F)(F)F)c1 (stereo not given) [BICALUTAMIDE]

>  <measuredTarget>
KM12

>  <IC50>
> 1.02 µM

$$$$
>  <compound>
NC(=O)c1ncn([C@@H]2O[C@H](COP(=O)(O)O)[C@@H](O)[C@H]2O)c1N

>  <measuredTarget>
KM12

>  <IC50>
> 2000 µM

$$$$
>  <compound>
C[C@]1(c2nc3c(C(N)=O)cccc3[nH]2)CCCN1 [VELIPARIB]

>  <measuredTarget>
KM12

>  <IC50>
> 5 µM

$$$$
>  <compound>
CCn1c(-c2nonc2N)nc2cnc(Oc3cccc(NC(=O)c4ccc(OCCN5CCOCC5)cc4)c3)cc21 [GSK-269962A]

>  <measuredTarget>
KM12;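 also: KM12 cell growth inhibition, read out with a cell viability assay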

>  <IC50>
> 2.5 µM

$$$$

---

# System: KNS-42
# experiment: cells
# Format: functional, cell-based
# testConditions: Homo sapiens
# Description: SANGER: Inhibition of human KNS-42 cell growth in a cell viability assay.
pIC50: −log10 of the molar value.

>  <compound>
NC(=O)c1ncn([C@@H]2O[C@H](COP(=O)(O)O)[C@@H](O)[C@H]2O)c1N

>  <measuredTarget>
KNS-42

>  <relation>
<

>  <pIC50>
2.70

$$$$
>  <compound>
Cc1n[nH]c2ccc(-c3cncc(OC[C@@H](N)Cc4c[nH]c5ccccc45)c3)cc12 [A-443654]

>  <measuredTarget>
KNS-42

>  <relation>
=

>  <pIC50>
6.61

$$$$
>  <compound>
Cn1c(=O)n(-c2ccc(C(C)(C)C#N)cc2)c2c3cc(-c4cnc5ccccc5c4)ccc3ncc21 [DACTOLISIB]

>  <measuredTarget>
KNS-42

>  <relation>
=

>  <pIC50>
6.84

$$$$
>  <compound>
N#C/C(=C1/Nc2ccccc2S1)c1ccnc(NCCc2cccnc2)n1

>  <measuredTarget>
KNS-42

>  <relation>
<

>  <pIC50>
5.10

$$$$

---

# Test system: JVM-3
# experiment: cells
# Format: functional, cell-based
# testConditions: Homo sapiens
# Description: SANGER: Inhibition of human JVM-3 cell growth in a cell viability assay.
pIC50: −log10 of the molar value.

>  <inputSmiles>
CCNC(=O)c1noc(-c2cc(C(C)C)c(O)cc2O)c1-c1ccc(CN2CCOCC2)cc1

>  <pIC50>
< 6.59

$$$$
>  <inputSmiles>
Cc1nc(Nc2ncc(C(=O)Nc3c(C)cccc3Cl)s2)cc(N2CCN(CCO)CC2)n1

>  <pIC50>
< 5.89

$$$$
>  <inputSmiles>
Cn1cc(/C=C2\C(=O)Nc3cccnc32)c2ccccc21

>  <pIC50>
< 5.70

$$$$
>  <inputSmiles>
O=c1cc(N2CCOCC2)oc2c(-c3cccc4c3sc3ccccc34)cccc12

>  <pIC50>
< 5.70

$$$$
>  <inputSmiles>
Cc1[nH]c(/C=C2\C(=O)Nc3ccc(S(=O)(=O)Cc4c(Cl)cccc4Cl)cc32)c(C)c1C(=O)N1CCC[C@@H]1CN1CCCC1

>  <pIC50>
< 5.70

$$$$

---

# Tested on: SNU-423
# experiment: cells
# Format: functional, cell-based
# testConditions: Homo sapiens
# Description: SANGER: Inhibition of human SNU-423 cell growth in a cell viability assay.

>  <molecule>
CC(O)(CS(=O)(=O)c1ccc(F)cc1)C(=O)Nc1ccc(C#N)c(C(F)(F)F)c1 (stereo not drawn) [BICALUTAMIDE]

>  <IC50>
> 1020 nM

$$$$
>  <molecule>
O=c1cc(N2CCOCC2)oc2c(-c3cccc4c3sc3ccccc34)cccc12

>  <IC50>
> 2000 nM

$$$$
>  <molecule>
CCCS(=O)(=O)Nc1ccc(F)c(C(=O)c2c[nH]c3ncc(Cl)cc23)c1F

>  <IC50>
> 10000 nM

$$$$

---

This listing pairs compounds with measured IC50.
# Test system: SK-UT-1;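 also: growth inhibition of SK-UT-1 cells, measured by a cell viability assay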
# experiment: cells
# Format: functional, cell-based
# testConditions: Homo sapiens
# Description: SANGER: Inhibition of human SK-UT-1 cell growth in a cell viability assay.

>  <compound>
CC(O)(CS(=O)(=O)c1ccc(F)cc1)C(=O)Nc1ccc(C#N)c(C(F)(F)F)c1 (stereo not given) [BICALUTAMIDE]

>  <IC50>
> 1020 nM

$$$$
>  <compound>
CCCS(=O)(=O)Nc1ccc(F)c(C(=O)c2c[nH]c3ncc(Cl)cc23)c1F [PLX-4720]

>  <IC50>
> 10000 nM

$$$$
>  <compound>
Cc1ccc(NC(=O)c2cccc(C(C)(C)C#N)c2)cc1Nc1ccc2ncn(C)c(=O)c2c1

>  <IC50>
> 4000 nM

$$$$
>  <compound>
O=c1cc(N2CCOCC2)oc2c(-c3cccc4c3sc3ccccc34)cccc12

>  <IC50>
> 2000 nM

$$$$
>  <compound>
Cc1[nH]c(/C=C2\C(=O)Nc3ccc(S(=O)(=O)Cc4c(Cl)cccc4Cl)cc32)c(C)c1C(=O)N1CCC[C@@H]1CN1CCCC1 [PHA-665752]

>  <IC50>
> 2000 nM

$$$$

---

# Test system: NCI-H69
# experiment: cells
# Format: functional, cell-based
# testConditions: Homo sapiens
# Description: SANGER: Inhibition of human NCI-H69 cell growth in a cell viability assay.
This listing pairs compounds with measured IC50.

>  <compound>
Cc1[nH]c(/C=C2\C(=O)Nc3ccc(S(=O)(=O)Cc4c(Cl)cccc4Cl)cc32)c(C)c1C(=O)N1CCC[C@@H]1CN1CCCC1 [PHA-665752]

>  <IC50>
> 2000 nM

$$$$
>  <compound>
CC(=O)c1c(C)c2cnc(Nc3ccc(N4CCNCC4)cn3)nc2n(C2CCCC2)c1=O [PALBOCICLIB]

>  <IC50>
> 4000 nM

$$$$
>  <compound>
Cc1nc(Nc2ncc(C(=O)Nc3c(C)cccc3Cl)s2)cc(N2CCN(CCO)CC2)n1 [DASATINIB]

>  <IC50>
> 1280 nM

$$$$

---

# Test system: EGI-1;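 also: cell viability readout used to gauge growth inhibition of EGI-1 cells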
# experiment: cells
# Type: functional, cell-based
# testConditions: Homo sapiens
# Description: SANGER: Inhibition of human EGI-1 cell growth in a cell viability assay.

>  <compound>
C/C(O)=C(\C#N)C(=O)Nc1cc(Br)ccc1Br

>  <IC50>
> 16 µM

$$$$
>  <compound>
CC(O)(CS(=O)(=O)c1ccc(F)cc1)C(=O)Nc1ccc(C#N)c(C(F)(F)F)c1 (stereo not drawn) [BICALUTAMIDE]

>  <IC50>
> 1.02 µM

$$$$
>  <compound>
CCCS(=O)(=O)Nc1ccc(F)c(C(=O)c2c[nH]c3ncc(Cl)cc23)c1F

>  <IC50>
> 10 µM

$$$$

---

# Test system: MDA-MB-453
# experiment: cells
# Assay type: functional, cell-based
# testConditions: Homo sapiens
# Description: SANGER: Inhibition of human MDA-MB-453 cell growth in a cell viability assay.

>  <compound>
NC(=O)c1ncn([C@@H]2O[C@H](COP(=O)(O)O)[C@@H](O)[C@H]2O)c1N

>  <IC50>
> 2000 µM

$$$$
>  <compound>
CCNC(=O)c1noc(-c2cc(C(C)C)c(O)cc2O)c1-c1ccc(CN2CCOCC2)cc1 [LUMINESPIB]

>  <IC50>
> 0.256 µM

$$$$
>  <compound>
C/C(O)=C(\C#N)C(=O)Nc1cc(Br)ccc1Br

>  <IC50>
> 16 µM

$$$$

---

# Tested on: A-375
# experiment: cells
# Assay type: functional, cell-based
# testConditions: Homo sapiens
# Description: SANGER: Inhibition of human A375 cell growth in a cell viability assay.
pIC50: −log10 of the molar value.

>  <inputSmiles>
N#C/C(=C1/Nc2ccccc2S1)c1ccnc(NCCc2cccnc2)n1

>  <pIC50>
< 5.10

$$$$
>  <inputSmiles>
O=c1[nH]c2ccccc2n1C1CCN(Cc2ccc(-c3nc4cc5[nH]cnc5cc4nc3-c3ccccc3)cc2)CC1

>  <pIC50>
< 5.59

$$$$
>  <inputSmiles>
C/C(O)=C(\C#N)C(=O)Nc1cc(Br)ccc1Br

>  <pIC50>
< 4.80

$$$$

---

This listing pairs compounds with measured IC50.
# Test system: K052;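 also: Read-out from a cell viability assay, IC50 reflecting suppression of K052 cell growth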
# experiment: cells
# Format: functional, cell-based
# testConditions: Homo sapiens
# Description: SANGER: Inhibition of human K052 cell growth in a cell viability assay.
quantityKind: IC50

>  <compound>
CCNc1cc(N[C@H]2CC[C@@H](O)CC2)nc(Nc2ccc3c(ccn3Cc3ccccc3)c2)n1

>  <assayValue>
> 5.12 µM

$$$$
>  <compound>
CC(O)(CS(=O)(=O)c1ccc(F)cc1)C(=O)Nc1ccc(C#N)c(C(F)(F)F)c1 (stereo not drawn) [BICALUTAMIDE]

>  <assayValue>
> 1.02 µM

$$$$
>  <compound>
C/C(O)=C(\C#N)C(=O)Nc1cc(Br)ccc1Br

>  <assayValue>
> 16 µM

$$$$

---

# Tested on: LCLC-97TM1
# experiment: cells
# Format: functional, cell-based
# testConditions: Homo sapiens
# Description: SANGER: Inhibition of human LCLC-97TM1 cell growth in a cell viability assay.
pIC50: −log10 of the molar value.
This listing pairs compounds with measured pIC50.
quantityKind: pIC50

>  <inputSmiles>
Cn1cc(/C=C2\C(=O)Nc3cccnc32)c2ccccc21

>  <measuredTarget>
LCLC-97TM1

>  <assayValue>
< 5.70

$$$$
>  <inputSmiles>
O=c1cc(N2CCOCC2)oc2c(-c3cccc4c3sc3ccccc34)cccc12

>  <measuredTarget>
LCLC-97TM1

>  <assayValue>
< 5.70

$$$$
>  <inputSmiles>
COc1cc(Nc2c(C#N)cnc3cc(OCCCN4CCN(C)CC4)c(OC)cc23)c(Cl)cc1Cl

>  <measuredTarget>
LCLC-97TM1;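 also: cell viability assay measuring growth inhibition of human LCLC-97TM1 cells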

>  <assayValue>
< 5.70

$$$$
